# reported drug sensitivity score; entries follow
- Test system: Kuramochi
- Protocol: drug sensitivity score (DSS) from 5-point dose-response viability curve (DSS (area-under-curve based score)); higher = more sensitive (stronger growth inhibition or killing); extreme values may be limits of the assay
- Conditions: exposure time: 72 h; concentration range: 5 concentrations over 10,000-fold range

[
  {
    "Chemical String": "CNC(=O)c1ccc(-c2cnc3ncc(Cc4ccc5ncccc5c4)n3n2)cc1F",
    "drug sensitivity score": 0.1
  },
  {
    "Chemical String": "Nc1ncn([C@H]2C[C@H](O)[C@@H](CO)O2)c(=O)n1",
    "drug sensitivity score": 0
  },
  {
    "Chemical String": "O=C(Nc1cnn2ccc(N3CCC[C@@H]3c3cc(F)ccc3F)nc12)N1CC[C@H](O)C1",
    "drug sensitivity score": 0
  },
  {
    "Chemical String": "C=CCc1cccc(/C=N/NC(=O)CN2CCN(Cc3ccccc3)CC2)c1O",
    "drug sensitivity score": 2.1
  },
  {
    "Chemical String": "CC(C)(O)CNc1nc(Nc2ccnc(C(F)(F)F)c2)nc(-c2cccc(C(F)(F)F)n2)n1",
    "drug sensitivity score": 0
  },
  {
    "Chemical String": "CC[C@@H]1C(=O)OC[C@@H]1Cc1cncn1C",
    "drug sensitivity score": 0
  },
  {
    "Chemical String": "CCCCCCCCCCCCCCCCOP(=O)([O-])OCC[N+](C)(C)C",
    "drug sensitivity score": 5.8
  },
  {
    "Chemical String": "O=c1ncn2nc(Sc3ccc(F)cc3F)ccc2c1-c1c(Cl)cccc1Cl",
    "drug sensitivity score": 2
  },
  {
    "Chemical String": "Cn1c(Nc2ccc(C(F)(F)F)cc2)nc2cc(Oc3ccnc(-c4ncc(C(F)(F)F)[nH]4)c3)ccc21",
    "drug sensitivity score": 0
  },
  {
    "Chemical String": "Nc1cc(F)ccc1NC(=O)/C=C/c1cnn(C/C=C/c2ccccc2)c1",
    "drug sensitivity score": 0.4
  },
  {
    "Chemical String": "COC(=O)c1ccc2c(c1)[nH]c1ncnc(NCCCN3CCCCC3)c12",
    "drug sensitivity score": 0
  },
  {
    "Chemical String": "Cc1cc(Nc2ncnc3ccc(NC4=NC(C)(C)CO4)cc23)ccc1Oc1ccn2ncnc2c1",
    "drug sensitivity score": 0
  },
  {
    "Chemical String": "COc1nc(N)nc2c1ncn2[C@@H]1O[C@H](CO)[C@@H](O)[C@@H]1O",
    "drug sensitivity score": 0
  },
  {
    "Chemical String": "CNC(=O)c1ccccc1Nc1nc(Nc2ccc3c(c2OC)CCC[C@H](N2CCN(CCO)CC2)C3)ncc1Cl",
    "drug sensitivity score": 6.4
  }
]

----------
- Test system: OVCAR5
- Protocol: drug sensitivity score (DSS) from 5-point dose-response viability curve (DSS (area-under-curve based score)); higher = more sensitive (stronger growth inhibition or killing); extreme values may be limits of the assay
- Conditions: exposure time: 72 h; concentration range: 5 concentrations over 10,000-fold range
Assign class by drug sensitivity score: not lower than 2 means yes; lower than 2 means no.

[
  {
    "Chemical String": "CCn1c(C(=O)N(C2CC2)C2CC2)cc2c3c(ncn3C)c(Nc3cc(C)n(C)n3)nc21",
    "Assayed System": "OVCAR5",
    "Assigned Category": "no"
  },
  {
    "Chemical String": "O=C(Nc1nc2cccc(-c3ccc(CN4CCS(=O)(=O)CC4)cc3)n2n1)C1CC1",
    "Assayed System": "OVCAR5",
    "Assigned Category": "no"
  },
  {
    "Chemical String": "COc1cc(OC)c(/C=C/S(=O)(=O)Cc2ccc(OC)c(NCC(=O)O)c2)c(OC)c1",
    "Assayed System": "OVCAR5",
    "Assigned Category": "yes"
  },
  {
    "Chemical String": "CC[C@H](CC#N)OC(=O)N[C@@H](C)c1cccc(NC(=O)Nc2ccc(-c3cnco3)c(OC)c2)c1",
    "Assayed System": "OVCAR5",
    "Assigned Category": "yes"
  },
  {
    "Chemical String": "CNC(=O)c1cccc2cc(Oc3ccnc4cc(OCC5(N)CC5)c(OC)cc34)ccc12",
    "Assayed System": "OVCAR5",
    "Assigned Category": "no"
  },
  {
    "Chemical String": "CC1(C)CNc2cc(NC(=O)c3cccnc3NCc3ccncc3)ccc21",
    "Assayed System": "OVCAR5",
    "Assigned Category": "no"
  },
  {
    "Chemical String": "O=c1ncn2nc(Sc3ccc(F)cc3F)ccc2c1-c1c(Cl)cccc1Cl",
    "Assayed System": "OVCAR5",
    "Assigned Category": "no"
  },
  {
    "Chemical String": "CC(C)NC[C@@H](C(=O)N1CCN(c2ncnc3c2[C@H](C)C[C@H]3O)CC1)c1ccc(Cl)cc1",
    "Assayed System": "OVCAR5",
    "Assigned Category": "yes"
  }
]

----------
- System: COV362
- Protocol: drug sensitivity score (DSS) from 5-point dose-response viability curve (DSS (area-under-curve based score)); higher = more sensitive (stronger growth inhibition or killing); extreme values may be limits of the assay
- Conditions: exposure time: 72 h; concentration range: 5 concentrations over 10,000-fold range
Assay Readout: drug sensitivity score

[
  {
    "Compound": "Cc1ccc(NC(=O)c2ccc(CN3CCN(C)CC3)cc2)cc1Nc1nc(-c2cccnc2)cs1",
    "Quantitative Readout": 1.4
  },
  {
    "Compound": "O=C(Nc1c[nH]nc1-c1nc2ccc(CN3CCOCC3)cc2[nH]1)NC1CC1",
    "Quantitative Readout": 4.4
  },
  {
    "Compound": "O=C(Nc1ccncc1)C(=O)c1cn(Cc2ccc(Cl)cc2)c2ccccc12",
    "Quantitative Readout": 1.8
  },
  {
    "Compound": "CC(C)C[C@H](NC(=O)[C@H](Cc1ccccc1)NC(=O)c1cnccn1)B(O)O",
    "Quantitative Readout": 24.7
  },
  {
    "Compound": "CCN(CC)CCCC(C)Nc1ccnc2cc(Cl)ccc12 (centres undefined)",
    "Quantitative Readout": 5.5
  },
  {
    "Compound": "Cc1cnc(NC(=O)Nc2cc(Br)c(C)cc2OC[C@@H]2CNCCO2)cn1",
    "Quantitative Readout": 0.2
  },
  {
    "Compound": "CO[C@@H](C(=O)N1Cc2[nH]nc(NC(=O)c3ccc(N4CCN(C)CC4)cc3)c2C1)c1ccccc1",
    "Quantitative Readout": 5.6
  },
  {
    "Compound": "C[C@]12CC[C@H](O)CC1=CC[C@@H]1[C@@H]2CC[C@]2(C)C(c3cccnc3)=CC[C@@H]12",
    "Quantitative Readout": 0
  },
  {
    "Compound": "CN(C)Cc1c(C(=O)NCCOc2ccc(C(=O)NO)cc2)oc2ccccc12",
    "Quantitative Readout": 5.6
  },
  {
    "Compound": "Cn1c(Nc2ccc(C(F)(F)F)cc2)nc2cc(Oc3ccnc(-c4ncc(C(F)(F)F)[nH]4)c3)ccc21",
    "Quantitative Readout": 0
  },
  {
    "Compound": "CCCCc1nc2cc(/C=C/C(=O)NO)ccc2n1CCN(CC)CC",
    "Quantitative Readout": 5.1
  },
  {
    "Compound": "C=CC(=O)Nc1cccc(Nc2nc(Nc3ccc(OCCOC)cc3)ncc2F)c1",
    "Quantitative Readout": 0.9
  },
  {
    "Compound": "COC[C@H](NC(=O)c1cnc(C)s1)C(=O)N[C@@H](COC)C(=O)N[C@@H](Cc1ccccc1)C(=O)[C@@]1(C)CO1",
    "Quantitative Readout": 15.1
  },
  {
    "Compound": "CC(C)(C#N)c1cc(Cn2cncn2)cc(C(C)(C)C#N)c1",
    "Quantitative Readout": 0
  },
  {
    "Compound": "COc1cc(N2CCC(N3CCN(C)CC3)CC2)ccc1Nc1ncc(Cl)c(Nc2ccccc2P(C)(C)=O)n1",
    "Quantitative Readout": 1.6
  },
  {
    "Compound": "CC(C)Oc1ccc(C(=O)N[C@H](CNC(=O)CN(C)C)Cc2ccc(-c3cn4cccc([C@H](C)O)c4n3)cc2)cc1Cl",
    "Quantitative Readout": 6
  },
  {
    "Compound": "CCCCCCCCCCCCCCCCCCOP(=O)([O-])OC1CC[N+](C)(C)CC1",
    "Quantitative Readout": 0
  },
  {
    "Compound": "CO[C@H]1C[C@@H]2CC[C@@H](C)[C@@](O)(O2)C(=O)C(=O)N2CCCC[C@H]2C(=O)O[C@H]([C@H](C)C[C@@H]2CC[C@@H](OP(C)(C)=O)[C@H](OC)C2)CC(=O)[C@H](C)/C=C(\\C)[C@@H](O)[C@@H](OC)C(=O)[C@H](C)C[C@H](C)/C=C/C=C/C=C/1C",
    "Quantitative Readout": 0
  },
  {
    "Compound": "CN(C)CCCOc1ccc(-c2ccc3ncc4c(c3c2)n(C2CCOCC2)c(=O)n4C)cn1",
    "Quantitative Readout": 0
  }
]
